This collection of values is drawn from PubChem BioAssay AID1851.

Molecular target: Cytochrome P450 2C9 (Homo sapiens) (UniProt P11712)
Sequence (P11712 whole entry, looked up): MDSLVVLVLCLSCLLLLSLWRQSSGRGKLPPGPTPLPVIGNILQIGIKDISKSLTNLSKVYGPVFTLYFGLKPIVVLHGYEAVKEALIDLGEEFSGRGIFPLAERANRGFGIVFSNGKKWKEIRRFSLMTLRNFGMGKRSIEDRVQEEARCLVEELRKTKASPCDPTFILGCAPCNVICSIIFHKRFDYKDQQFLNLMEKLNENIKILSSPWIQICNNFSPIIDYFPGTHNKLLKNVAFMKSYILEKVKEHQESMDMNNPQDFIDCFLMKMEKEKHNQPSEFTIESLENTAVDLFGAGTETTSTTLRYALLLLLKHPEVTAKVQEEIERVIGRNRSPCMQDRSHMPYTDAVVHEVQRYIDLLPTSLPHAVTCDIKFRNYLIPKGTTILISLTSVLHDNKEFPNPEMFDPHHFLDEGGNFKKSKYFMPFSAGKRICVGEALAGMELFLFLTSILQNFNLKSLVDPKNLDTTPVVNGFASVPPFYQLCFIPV
Assay: Cytochrome panel assay with activity outcomes
Conditions: recombinant CYP, pro-luciferin dealkylation, luminescence, p450-cyp2c9; series mostly up to 57.1 µM
The whole screen tested about 16,000 compounds, of which about 4,000 (25%) were called active. Roughly 26% stayed inconclusive and do not appear here. Calls follow the shape of the dose curve; as a rule, active = well fitted curve in the direction sought with a large enough effect; inconclusive = small, poorly fitted or top-dose-only effect, or effect the other way; inactive = no such curve, though single readings can be large or run the other way. These entries were drawn from the full list.
Outcome (select one): active, inactive

COC(=O)[C@@]1(Cc2ccc(F)cc2)[C@H]2c3cc(C(=O)N4CCCC4)n(CCc4ccc(OC)c(Br)c4)c3C[C@H]2CN1C(=O)c1ccccc1 : active
CC(c1ccc(Cl)cc1)n1c(-c2ccc3ccccc3n2)n[nH]c1=S (configuration not stated) : active
C[C@H](N)C(=O)O : inactive
N#CCCn1c(=O)c(CCc2ccccc2)nc2cnc(Nc3ccccc3)nc21 : inactive
O=C(O)CSc1sc(=S)sc1SCC(=O)O : inactive
Cc1nc2cnc(N3CCNCC3)nc2n(-c2ccccc2)c1=O : inactive

Req: Assay result, entry "Cc1ccc(Sc2nc(-c3ccccc3)ccc2C#N)cc1" — outcome?
Resp: active

Req: Same for "CCNc1ncc2nc(-c3ccccc3)c(=O)n(C)c2n1"
Resp: active

Req: Same for "COc1ccc(C(=O)N2CCC3(CC2)CN(C(=O)Nc2ccccc2)C3)cc1"
Resp: inactive

Req: Same for "FC(F)(F)c1nc(-c2ccncc2)ncc1-c1nnnn1-c1ccccc1"
Resp: active

Req: Same for "CCNc1ncc2nc(-c3ccccc3)c(=O)n(CCC#N)c2n1"
Resp: inactive

Req: Same for "O=C(c1ccc([N+](=O)[O-])cc1)[C@@H](Br)[C@@H](Br)c1ccnc2ccccc12"
Resp: active

Req: Same for "CCNc1ncc2nc(CCc3ccccc3)c(=O)n(-c3ccccc3)c2n1"
Resp: active

Req: Same for CC(=O)N1CC2(CC2)CC1c1ccccc1 (configuration not stated)
Resp: inactive
